assay: 14C assay: 14CO2 capture from [14C]-carboxyl-labeled dicamba with IPTG-induced recombinant E. coli cells; details: IPTG-induced recombinant E. coli cells; 14CO2 from [14C]-carboxyl-labeled dicamba

MOLECULE	Dicamba Decarboxylase Activity
81 (protein, listed as Verticillium dahliae) MAASTKPKVVDIHTHMYPPSYIDILTSRTAIPVVRTFPQAADPRLILLDAEQQALDAALQDPTAKPPGRPLTSHYASLDQKIHFMDTHSIDISVVSLANPWLDFIEPKEAAATARSVNDEFEAMCASQPGRLFFFAALPLTAPLPALLEAVRHVAELEHCRGVILGTSGLGSGLDDPELVPVLEAVAAAALTVFLHPHYGLPNDVWGPRASAEYGHVLPLALGFPMETTIAVARMYLAGVFDRVPALRMLLAHSGGTLPFLAGRIESCILHDGQLVAEGKVGAARRTIWDVLREQVYLDAVIYSEIGLKAAIAASGGADRLMFGTDHPFFPPLGTDEQAKKESRINAGGSRPMITGNAMINGHGGLCNHITQSDYQDVVL	High
57 (protein, Collimonas fungivorans) MAKLICVEEHVLDPAVGAATQSLVRAEAPYLPDWGSRVLDGRHVADRSRPHVIAPSESARKALEMGEPRLADMDAASIDMQVLSYGGFPQLLPAAQAIDLNRAANDKLALAAQAHPARFAGFATLPWQAPEAAARELERAVKQLGLKGALINGRPGDTFLDDARYAPILAAFDELKVPLYVHPGLPLPAVQAPYYGGFERELSARLAMFAWGWHNEAGIQVVRMLLAGVFDRHPRLQLISGHWGEMVPFFLQRLEDSIPQEASGLQRPIVQTYREHVYISPSGMFTLPHFQFIHALMGAQRILYSIDYPYQSLDGARAFIERLPISDTDKALIAHRNAERLLHL	High
99 (protein, listed as Ralstonia solanacearum) MAIIDCHGHFTTAPTALEDWRKRQIANLATPALGPSPDDLKISDDALTEAIRANQLRLMQARGSDLTIFSPRASFMAHHIGDFHTSATWAAICNALCHRVSQLFPDHFVGAAMLPQSPGVDIRTCIPELARCIVDYGFVGVNLNPDPSGGHWTSPPLSDPYWFPLYEKLVEYDVPAMIHVSTSCNACFHTTGAHYLNADTTAFMQVLTSDLFRRFPTLKFVIPHGGGAVPYHWGRFRGLAQELKTPPLQEHLLHNVFFDTCVYHQPGIDLLTRVIPVDNILFASEMIGAVRGIDPETGHPFDDTRRYIDQAHTLSAEDRHKIYEGNARRVYPRLDARLKARGR	No
18 (protein, listed as Legionella pneumophila) MAIVDFETHFITEACIDYLTQRQEVPKLVPELNGAYTMCFTPDVSLFHTSALMEELLSLNEQRLAIMDQAGVTIQVLSLTTINGIDSCPGDENKSTALAREVNDQLYSAIQKHPERFKGFASISPYDVKEGVKELERAISQLGFVGWLTHSNFGQDNYLDDKIYWPLLEAAESLNIPIYLHPNVPIMREFGKYGFALGGSALGFEFDTALCLMRMILGGVFDAFPKLKIMLGHLGETMPFLMERLDHLYRIPDLKPYRPSIQRIPSEVLRQNVYITTSGRFFVPALRYVLEVMGEDRVLFASDYPMESLLDATRFIQDSDLSNQTKQKIFSINAKNLNLI	Low

Hey, just so you know, these numbers are from patent US20140289906A1.
